# System: IGROV1 ovarian
# experiment-summary: NCI tumour cell line growth inhibition, 48 h
TGI values, listed per item

Please review the following examples before continuing.
* CCOc1ccccc1C(=O)/C=C/c1cc2ccccc2[nH]c1=O | 1.86 µM
* COc1cc2c(cc1OCCCCCN1CCN(CCCCCOc3cc4c(cc3OC)C(=O)C3CCC[C@H]3C=N4)CC1)N=C[C@@H]1CCCC1C2=O (some centres undefined) | > 25 µM
* c1ccc(N=C(N2CCCCC2)N(CCN2CCCCC2)c2ccccc2)cc1 | 12.1 µM

Query: Dear colleague, please send me the reported TGI for COc1cc2c(cc1OCCCC(=O)Nc1cc(C(=O)Nc3cc(C(=O)Nc4cc(C(=O)NCCCN(C)C)n(C)n4)n(C)c3)n(C)c1)N=CC1CCCN1C2=O (centres undefined) when you can.
Result: 49.1 µM

Query: Name the recorded TGI of the compound listed here: `C/C(=N\Nc1nc2ccccc2o1)c1ccc2ccccc2n1`
Result: 5.32 µM

Query: # return recorded TGI for entry `[N-]=[N+]=Nc1cccc(-c2n[nH]c(Cl)cc2=O)c1`
Result: > 100 µM

Query: For the compound N#CC(C(=O)C(N)=O)c1ccccc1Cl (centres undefined) , give its measured TGI value.
Result: > 100 µM

* * *

# System: OVCAR-4 ovarian
# experiment-summary: NCI tumour cell line growth inhibition, 48 h; in the data active = GI50 below about 0.43 µM; inactive = the rest
Choose one outcome from this list and give only that: active, inactive

* CCN(CC)C(=S)SS(=O)(=O)c1ccc(N)cc1 | inactive
* COC(=O)[C@]12CC[C@@H](C)[C@H](C)[C@@H]1C1=CC[C@@H]3[C@@]4(C)C[C@@H](OC(C)=O)[C@H](O)[C@@](C)(CO)[C@@H]4[C@H](O)C[C@@]3(C)[C@]1(C)CC2 | inactive
* CCCCCCCCCCCCCCCC(=O)Nc1ccn([C@@H]2O[C@H](CO)[C@@H](O)[C@@H]2C#N)c(=O)n1 | inactive
* CC(C)(C(=O)NCC(F)(F)C(F)(F)F)C(=O)N[C@@H]1C(=O)Nc2ccccc2-c2ccccc21 | inactive
* O=S(=O)(Nc1ccc2ccccc2c1)N1CCCCC1 | inactive

Query: State the result this test recorded for `COc1ccc(/C=C/C(=O)Nc2cc(/C=C\c3cc(OC)c(OC)c(OC)c3)cc(OC)c2OC)cc1OC` .
Result: inactive

Query: State the result this test recorded for `Cc1cccc(-n2cnc3cc(C(=O)N4CCCCC4)ccc32)c1` .
Result: inactive

Query: Status in this test for `C#CCNCCCN1C(=O)c2ccc3c4c(ccc(c24)C1=O)C(=O)N(CCCNCC#C)C3=O` ?
Result: active

* * *

Catalogue of TGI readings, one per entry.
# System: KM12 colon
# experiment-summary: NCI tumour cell line growth inhibition, 48 h
Expressed in µM, but write only the number.

* c1ccc2c(c1)N[C@@H]1c3[nH]c4ccccc4c3CC[C@H]21 | 30.7
* C=C(C)[C@@H]1CC[C@]2(C(N)=O)CC[C@]3(C)[C@H](CC[C@@H]4[C@@]5(C)C/C(=C/c6cccnc6)C(=O)C(C)(C)[C@@H]5CC[C@]43C)[C@@H]12 | 64.1
* COc1cc2c(cc1OCCCC(=O)Nc1cc(C(=O)Nc3cc(C(=O)Nc4cc(C(=O)NCCCN(C)C)n(C)n4)n(C)c3)n(C)c1)N=CC1CCCN1C2=O (stereo not given) | 64.1

Turning to the following compound.
Query: For the compound `Cc1ccc(I)cc1N=C=S` , report TGI.
Result: 36.9
